# Tested system: Recombinant human MMP-8 (Homo sapiens)
# Sequence (P22894 101-467): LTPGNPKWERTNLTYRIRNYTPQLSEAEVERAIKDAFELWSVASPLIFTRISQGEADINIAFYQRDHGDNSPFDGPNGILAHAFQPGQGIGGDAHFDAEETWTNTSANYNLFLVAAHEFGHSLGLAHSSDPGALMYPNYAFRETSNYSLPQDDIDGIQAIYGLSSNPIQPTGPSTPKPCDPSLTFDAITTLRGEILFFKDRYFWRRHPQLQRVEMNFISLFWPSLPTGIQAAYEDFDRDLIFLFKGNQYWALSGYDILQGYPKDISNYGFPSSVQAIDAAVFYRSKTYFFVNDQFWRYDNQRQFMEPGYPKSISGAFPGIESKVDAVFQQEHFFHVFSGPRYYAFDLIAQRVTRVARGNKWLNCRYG
# Assay method text: In vitro MMP inhibition, fluorogenic peptide substrate
# Condition summary: Table B
Exercise: for every item that follows, state its recorded pIC50.
Expect pIC50 as a plain number equal to -log10 of the molar concentration.

Name the reported pIC50 value associated with the compound CCCCOc1ccc(N2CCN(S(=O)(=O)c3ccc(OC)c(OC)c3C(=O)NO)CC2)cc1F [Example 25]
6.60

Name the reported pIC50 value associated with the compound COc1ccc(S(=O)(=O)N2CCN(c3ccc(OC(F)(F)F)cc3)CC2)c(C(=O)NO)c1OC [Example 26]
8.15

Name the reported pIC50 value associated with the compound COc1ccc(S(=O)(=O)N2CCC(Sc3ccccc3)CC2)c(C(=O)NO)c1OC [Example 24]
6.97

Name the reported pIC50 value associated with the compound COc1ccc(-c2ccc(OC3CCN(S(=O)(=O)c4ccc(OC)c(OC)c4C(=O)NO)CC3)cc2)cc1OC [Example 27]
6.94
